Measured values drawn from FireProtDB (doi:10.1093/protein/15.10.817) for this set.

Catalogue of change of melting temperature, mutant - wild type (higher = more stable) readings, one per entry.
B1: High mobility group protein B1, P63159 (parent)
chain: MGKGDPKKPRGKMSSYAFFVQTCREEHKKKHPDASVNFSEFSKKCSERWKTMSAKEKGKFEDMAKADKARYEREMKTYIPPKGETKKKFKDPNAPKRPPSAFFLFCSEYRPKIKGEHPGLSIGDVAKKLGEMWNNTAADDKQPYEKKAAKLKEKYEKDIAAYRAKGKPDAAKKGVVKAEKSKKKKEEEDDEEDEEDEEEEEEEEDEDEEEDDDDE

- Variants of: B1
- testConditions: Rattus norvegicus; pH 7; Thermal; CD; HEPES 10 mM; NiSO4 1 mM; structure 1HME; whole UniProt chain shown
measureName: change of melting temperature, mutant - wild type (higher = more stable)

>  <mutantDesignation>
G123H

>  <testValue>
4.3 °C

$$$$
>  <mutantDesignation>
D139H

>  <testValue>
6.2 °C

$$$$
>  <mutantDesignation>
S121H

>  <testValue>
-6.2 °C

$$$$
>  <mutantDesignation>
I122H

>  <testValue>
1.3 °C

$$$$
>  <mutantDesignation>
D140H

>  <testValue>
6.2 °C

$$$$
